system: Hs578T complex spheroid growth, percent test/control; test: Anticancer human tumor Hs578T cell line growth inhibition [AhR]; details: second compound 1 µM; first compound 10 µM; active means viability on the fitted dose curve at most 10% of control; inactive means the rest
Give your call using only these classes: y (active), n (inactive)

Please indicate how the test categorized COc1cc(C2c3cc4c(cc3C(OC3OC5COC(C)OC5C(O)C3O)C3COC(=O)C23)OCO4)cc(OC)c1O (stereo unspecified) + Cc1cncc(-c2nc(NCCc3c[nH]c4ccccc34)c3ncn(C(C)C)c3n2)c1 .
n

Please indicate how the test categorized Nc1ccn(C2OC(CO)C(O)C2(F)F)c(=O)n1 (stereo unspecified) + Cc1ccccc1N=Nc1ccc(NC(=O)c2ccnn2C)c(C)c1 .
n

Please indicate how the test categorized COc1cc(Nc2ncc3c(n2)-c2ccc(Cl)cc2C(c2c(F)cccc2OC)=NC3)ccc1C(=O)O + CC(CO)NC(=O)c1cc(-c2ccc(Cl)cc2)nn(-c2cnn(C)c2)c1=O .
n

Please indicate how the test categorized Nc1ccccc1NC(=O)c1ccc(CNC(=O)OCc2cccnc2)cc1 + Cc1cncc(-c2nc(NCCc3c[nH]c4ccccc34)c3ncn(C(C)C)c3n2)c1 .
y

Please indicate how the test categorized COc1cccc2c1C(=O)c1c(O)c3c(c(O)c1C2=O)CC(O)(C(=O)CO)CC3OC1CC(N)C(O)C(C)O1 (stereo unspecified) + Cc1ccccc1N=Nc1ccc(NC(=O)c2ccnn2C)c(C)c1 .
y

Please indicate how the test categorized CC1(C)CCC(CN2CCN(c3ccc(C(=O)NS(=O)(=O)c4ccc(NCC5CCOCC5)c([N+](=O)[O-])c4)c(Oc4cnc5[nH]ccc5c4)c3)CC2)=C(c2ccc(Cl)cc2)C1 + Cc1ccccc1N=Nc1ccc(NC(=O)c2ccnn2C)c(C)c1 .
n

Please indicate how the test categorized CC(C)c1c(-c2ccccc2)nc2c(C#N)c[nH]n2c1=O + Cc1cncc(-c2nc(NCCc3c[nH]c4ccccc34)c3ncn(C(C)C)c3n2)c1 .
n

Please indicate how the test categorized O=C(C=Cc1cccc(S(=O)(=O)Nc2ccccc2)c1)NO + Cc1ccccc1N=Nc1ccc(NC(=O)c2ccnn2C)c(C)c1 .
y

Please indicate how the test categorized COc1ccc([C@@H](O)c2cc(-c3ncnc4cc(N5CCOCC5)ccc34)c(F)cc2Cl)nn1 + Cc1ccccc1N=Nc1ccc(NC(=O)c2ccnn2C)c(C)c1 .
n

Please indicate how the test categorized CC1COCCN1c1cc(C2(S(C)(=N)=O)CC2)nc(-c2ccnc3[nH]ccc23)n1 (stereo unspecified) + Cc1cncc(-c2nc(NCCc3c[nH]c4ccccc34)c3ncn(C(C)C)c3n2)c1 .
n

Please indicate how the test categorized NS(=O)(=O)OCC1CC(n2ccc3c(NC4CCc5ccccc54)ncnc32)CC1O (stereo unspecified) + Cc1ccccc1N=Nc1ccc(NC(=O)c2ccnn2C)c(C)c1 .
n

Please indicate how the test categorized COc1cc(C2c3cc4c(cc3C(OC3OC5COC(C)OC5C(O)C3O)C3COC(=O)C23)OCO4)cc(OC)c1O (stereo unspecified) + CC(CO)NC(=O)c1cc(-c2ccc(Cl)cc2)nn(-c2cnn(C)c2)c1=O .
n

Please indicate how the test categorized COc1cc(Nc2ncc3c(n2)-c2ccc(Cl)cc2C(c2c(F)cccc2OC)=NC3)ccc1C(=O)O + Cc1cncc(-c2nc(NCCc3c[nH]c4ccccc34)c3ncn(C(C)C)c3n2)c1 .
n

Please indicate how the test categorized CC(C)c1c(-c2ccccc2)nc2c(C#N)c[nH]n2c1=O + Cc1ccccc1N=Nc1ccc(NC(=O)c2ccnn2C)c(C)c1 .
n

Please indicate how the test categorized CC1COCCN1c1cc(C2(S(C)(=N)=O)CC2)nc(-c2ccnc3[nH]ccc23)n1 (stereo unspecified) + CC(CO)NC(=O)c1cc(-c2ccc(Cl)cc2)nn(-c2cnn(C)c2)c1=O .
n

Please indicate how the test categorized COc1cc(Nc2ncc3c(n2)-c2ccc(Cl)cc2C(c2c(F)cccc2OC)=NC3)ccc1C(=O)O + Cc1ccccc1N=Nc1ccc(NC(=O)c2ccnn2C)c(C)c1 .
n

====

system: Hs578T complex spheroid growth, percent test/control; experiment: Anticancer human tumor Hs578T cell line growth inhibition [AhR]; conditions: curve of first compound; second compound 3.16 µM;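 further: luminescent viability signal as a proxy for spheroid growth; spheroids exposed to agents for one week after three days of growth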
pIC50: −log10 of the molar value.
readout: pIC50

Look at this molecule and give its reported pIC50. Nc1ncn(C2CC(O)C(CO)S2)c(=O)n1 (stereo not given) + Cc1ccccc1N=Nc1ccc(NC(=O)c2ccnn2C)c(C)c1
< 6.52

Look at this molecule and give its reported pIC50. CCN(c1cc(-c2ccc(CN3CCOCC3)cc2)cc(C(=O)NCc2c(C)cc(C)[nH]c2=O)c1C)C1CCOCC1 + Cc1cncc(-c2nc(NCCc3c[nH]c4ccccc34)c3ncn(C(C)C)c3n2)c1
> 8.02

Look at this molecule and give its reported pIC50. Nc1ncn(C2CC(O)C(CO)O2)c(=O)n1 (stereo not given) + CC(CO)NC(=O)c1cc(-c2ccc(Cl)cc2)nn(-c2cnn(C)c2)c1=O
< 6.00

Look at this molecule and give its reported pIC50. CC[C@@]1(O)C(=O)OCc2c1cc1n(c2=O)Cc2cc3c(CN(C)C)c(O)ccc3nc2-1 + CC(CO)NC(=O)c1cc(-c2ccc(Cl)cc2)nn(-c2cnn(C)c2)c1=O
< 7.00

Look at this molecule and give its reported pIC50. Cn1ncnc1C1c2n[nH]c(=O)c3cc(F)cc(c23)NC1c1ccc(F)cc1 (stereo not given) + Cc1cncc(-c2nc(NCCc3c[nH]c4ccccc34)c3ncn(C(C)C)c3n2)c1
< 7.00

====

test system: Hs578T complex spheroid growth, percent test/control; test: Anticancer human tumor Hs578T cell line growth inhibition [AhR]; settings: curve of first compound; second compound 0.1 µM;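 further: luminescent viability signal as a proxy for spheroid growth; spheroids exposed to agents for one week after three days of growth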
readout: IC50

Look at this compound and give its reported IC50. Nc1ccn(C2OC(CO)C(O)C2(F)F)c(=O)n1 (stereo not drawn) + Cc1cncc(-c2nc(NCCc3c[nH]c4ccccc34)c3ncn(C(C)C)c3n2)c1
> 10 µM

Look at this compound and give its reported IC50. CC[C@@]1(O)C(=O)OCc2c1cc1n(c2=O)Cc2cc3c(CN(C)C)c(O)ccc3nc2-1 + Cc1cncc(-c2nc(NCCc3c[nH]c4ccccc34)c3ncn(C(C)C)c3n2)c1
> 0.1 µM

Look at this compound and give its reported IC50. COc1cc(C2c3cc4c(cc3C(OC3OC5COC(C)OC5C(O)C3O)C3COC(=O)C23)OCO4)cc(OC)c1O (stereo not drawn) + Cc1ccccc1N=Nc1ccc(NC(=O)c2ccnn2C)c(C)c1
> 10 µM

====

Test system: Hs578T complex spheroid growth, percent test/control
Experiment: Anticancer human tumor Hs578T cell line growth inhibition [AhR];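 further: luminescent viability signal as a proxy for spheroid growth; spheroids exposed to agents for one week after three days of growth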
Conditions: second compound 1 µM; first compound 0.000949 µM; stronger effect = lower value
Source text: Multicellular complex tumor spheroid response to aryl hydrocarbon receptor antagonists in combination with a variety of drugs and investigational agents in selected tumor cell lines […] Compounds. […] If the clinical Cmax for an agent had not been determined, the highest concentration tested was 10 microM (Table 1). […]
Please respond with reported viability, T/C for every item in the list.
Please respond with the number in % and leave the unit unwritten.

Look at this molecule and give its reported viability, T/C. Nc1ncn(C2CC(O)C(CO)S2)c(=O)n1 (stereo not given) + CC(CO)NC(=O)c1cc(-c2ccc(Cl)cc2)nn(-c2cnn(C)c2)c1=O
112

Look at this molecule and give its reported viability, T/C. CC(C)CC(NC(=O)C(Cc1ccccc1)NC(=O)c1cnccn1)B(O)O (stereo not given) + CC(CO)NC(=O)c1cc(-c2ccc(Cl)cc2)nn(-c2cnn(C)c2)c1=O
102

Look at this molecule and give its reported viability, T/C. Nc1ncn(C2CC(O)C(CO)S2)c(=O)n1 (stereo not given) + Cc1cncc(-c2nc(NCCc3c[nH]c4ccccc34)c3ncn(C(C)C)c3n2)c1
92.2

Look at this molecule and give its reported viability, T/C. CC(C)CC(NC(=O)C(Cc1ccccc1)NC(=O)c1cnccn1)B(O)O (stereo not given) + Cc1ccccc1N=Nc1ccc(NC(=O)c2ccnn2C)c(C)c1
98.2

Look at this molecule and give its reported viability, T/C. CCc1c2c(nc3ccc(O)cc13)-c1cc3c(c(=O)n1C2)COC(=O)[C@]3(O)CC + CC(CO)NC(=O)c1cc(-c2ccc(Cl)cc2)nn(-c2cnn(C)c2)c1=O
81.6

====

test system: Hs578T complex spheroid growth, percent test/control; assay: Anticancer human tumor Hs578T cell line growth inhibition [AhR]; details: second compound 0.316 µM; first compound 0.0316 µM; stronger effect = lower value;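 further: luminescent viability signal as a proxy for spheroid growth; spheroids exposed to agents for one week after three days of growth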
Please respond with reported viability, T/C for every item in the list.
Please respond with the number in % and leave the unit unwritten.

Look at this compound and give its reported viability, T/C. O=C(c1cc(Cc2n[nH]c(=O)c3ccccc23)ccc1F)N1CCN(C(=O)C2CC2)CC1 + Cc1ccccc1N=Nc1ccc(NC(=O)c2ccnn2C)c(C)c1
101

Look at this compound and give its reported viability, T/C. O=C(c1cc(Cc2n[nH]c(=O)c3ccccc23)ccc1F)N1CCN(C(=O)C2CC2)CC1 + CC(CO)NC(=O)c1cc(-c2ccc(Cl)cc2)nn(-c2cnn(C)c2)c1=O
110

Look at this compound and give its reported viability, T/C. COc1cccc2c1C(=O)c1c(O)c3c(c(O)c1C2=O)CC(O)(C(=O)CO)CC3OC1CC(N)C(O)C(C)O1 (stereo unspecified) + CC(CO)NC(=O)c1cc(-c2ccc(Cl)cc2)nn(-c2cnn(C)c2)c1=O
78.7

Look at this compound and give its reported viability, T/C. CC1(C)CCC(CN2CCN(c3ccc(C(=O)NS(=O)(=O)c4ccc(NCC5CCOCC5)c([N+](=O)[O-])c4)c(Oc4cnc5[nH]ccc5c4)c3)CC2)=C(c2ccc(Cl)cc2)C1 + CC(CO)NC(=O)c1cc(-c2ccc(Cl)cc2)nn(-c2cnn(C)c2)c1=O
110

Look at this compound and give its reported viability, T/C. Nc1ccccc1NC(=O)c1ccc(CNC(=O)OCc2cccnc2)cc1 + Cc1ccccc1N=Nc1ccc(NC(=O)c2ccnn2C)c(C)c1
100

Look at this compound and give its reported viability, T/C. CC1(C)CCC(CN2CCN(c3ccc(C(=O)NS(=O)(=O)c4ccc(NCC5CCOCC5)c([N+](=O)[O-])c4)c(Oc4cnc5[nH]ccc5c4)c3)CC2)=C(c2ccc(Cl)cc2)C1 + Cc1cncc(-c2nc(NCCc3c[nH]c4ccccc34)c3ncn(C(C)C)c3n2)c1
117

Look at this compound and give its reported viability, T/C. Cn1ncnc1C1c2n[nH]c(=O)c3cc(F)cc(c23)NC1c1ccc(F)cc1 (stereo unspecified) + Cc1ccccc1N=Nc1ccc(NC(=O)c2ccnn2C)c(C)c1
106

Look at this compound and give its reported viability, T/C. COc1cc(Nc2ncc3c(n2)-c2ccc(Cl)cc2C(c2c(F)cccc2OC)=NC3)ccc1C(=O)O + Cc1ccccc1N=Nc1ccc(NC(=O)c2ccnn2C)c(C)c1
85

Look at this compound and give its reported viability, T/C. Nc1ccn(C2OC(CO)C(O)C2(F)F)c(=O)n1 (stereo unspecified) + Cc1cncc(-c2nc(NCCc3c[nH]c4ccccc34)c3ncn(C(C)C)c3n2)c1
67.2

Look at this compound and give its reported viability, T/C. NS(=O)(=O)OCC1CC(n2ccc3c(NC4CCc5ccccc54)ncnc32)CC1O (stereo unspecified) + Cc1cncc(-c2nc(NCCc3c[nH]c4ccccc34)c3ncn(C(C)C)c3n2)c1
128

Look at this compound and give its reported viability, T/C. CC1(C)CCC(CN2CCN(c3ccc(C(=O)NS(=O)(=O)c4ccc(NCC5CCOCC5)c([N+](=O)[O-])c4)c(Oc4cnc5[nH]ccc5c4)c3)CC2)=C(c2ccc(Cl)cc2)C1 + Cc1ccccc1N=Nc1ccc(NC(=O)c2ccnn2C)c(C)c1
106

Look at this compound and give its reported viability, T/C. COc1cc(Nc2ncc3c(n2)-c2ccc(Cl)cc2C(c2c(F)cccc2OC)=NC3)ccc1C(=O)O + Cc1cncc(-c2nc(NCCc3c[nH]c4ccccc34)c3ncn(C(C)C)c3n2)c1
93.5

Look at this compound and give its reported viability, T/C. O=C(C=Cc1cccc(S(=O)(=O)Nc2ccccc2)c1)NO + Cc1ccccc1N=Nc1ccc(NC(=O)c2ccnn2C)c(C)c1
105

Look at this compound and give its reported viability, T/C. COc1cc(C2c3cc4c(cc3C(OC3OC5COC(C)OC5C(O)C3O)C3COC(=O)C23)OCO4)cc(OC)c1O (stereo unspecified) + CC(CO)NC(=O)c1cc(-c2ccc(Cl)cc2)nn(-c2cnn(C)c2)c1=O
111

Look at this compound and give its reported viability, T/C. CC1COCCN1c1cc(-c2ccnn2C)c2ccnc(-c3ccn[nH]3)c2n1 (stereo unspecified) + Cc1cncc(-c2nc(NCCc3c[nH]c4ccccc34)c3ncn(C(C)C)c3n2)c1
109

Look at this compound and give its reported viability, T/C. O=C(c1cc(Cc2n[nH]c(=O)c3ccccc23)ccc1F)N1CCN(C(=O)C2CC2)CC1 + Cc1cncc(-c2nc(NCCc3c[nH]c4ccccc34)c3ncn(C(C)C)c3n2)c1
116
